- TARGET OF ASSAY: human CD33 on primary human monocyte-derived dendritic cells (human, UniProt P20138 18-364)
- Sequence (P20138 18-364): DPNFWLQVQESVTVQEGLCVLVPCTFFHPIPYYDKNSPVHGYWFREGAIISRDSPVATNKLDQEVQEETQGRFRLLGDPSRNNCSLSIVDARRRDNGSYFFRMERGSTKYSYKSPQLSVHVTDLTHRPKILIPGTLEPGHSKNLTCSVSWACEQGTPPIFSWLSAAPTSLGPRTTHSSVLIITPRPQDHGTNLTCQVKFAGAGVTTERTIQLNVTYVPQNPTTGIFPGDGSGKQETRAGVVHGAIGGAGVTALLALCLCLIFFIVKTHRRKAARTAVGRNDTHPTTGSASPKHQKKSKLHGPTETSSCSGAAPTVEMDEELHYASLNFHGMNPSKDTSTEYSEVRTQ
- EXPERIMENT DESCRIPTION: cell-based or functional assay
MEASURE: Receptor downregulation (EC50) (nM)
# output: bare number, implied unit nM

These solved cases illustrate the format of a correct answer.
AB-14.2 (antibody, V domains shown) VH: QVQLVQSGAEVKKPGASVKVSCKASGATFTDYNYHWVRQAPGQGLEWIGFIYPSNGITGYAQKFQDRVTMTVDTSTSTVYMELSSLRSEDTAVYYCARSFVDYFDYWGQGTLVTVSS VL: DIQMTQSPSSLSASVGDRVTITCRASQDVSTSTYSYMHWYQQKPGKAPKLLIKYASNLESGVPSRFSGSGSGTDFTLTISSLQPEDFATYYCQHSWEIPLTFGQGTKLEIK    0.055
AB-14.4 (antibody, V domains shown) VH: QVQLVQSGAEVKKPGASVKVSCKASGYTFTDYNYHWVRQAPGQGLEWIGFIYPSNGITGYAQKFQGRVTMTVDTSTSTVYMELSSLRSEDTAVYYCADSTVDYFDYWGQGTLVTVSS VL: DIQMTQSPSSLSASVGDRVTITCRASQDVSTSTYSYMHWYQQKPGKAPKLLIKYVSNLESGVPSRFSGSGSGTDFTLTISSLQPEDFATYYCQHSWEIPLTFGQGTKLEIK    0.0582

Item under review: AB-14.1 (antibody, V domains shown) VH: QVQLVQSGAEVKKPGASVKVSCKASGATFTDYNFHWVRQAPGQGLEWIGFIYPSNGITGYAQDFQGRVTMTVDTSTSTVYMELSSLRSEDTAVYYCARSDVDYFDYWGQGTLVTVSS VL: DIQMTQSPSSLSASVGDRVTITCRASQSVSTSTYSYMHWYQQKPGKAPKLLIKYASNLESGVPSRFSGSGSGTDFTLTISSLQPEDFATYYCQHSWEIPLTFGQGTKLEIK . Reported Receptor downregulation (EC50)?
0.0927

Item under review: AB-14.11 (antibody, V domains shown) VH: QVQLVQSGAEVKKPGASVKVSCKASGYTFTDYNYHWVRQAPGQGLEWIGFIYPSNGITGYAQKFQGRVTMTVDTSTSTVYMELSSLRSEDTAVYYCARSSVDYFDYWGQGTLVTVSS VL: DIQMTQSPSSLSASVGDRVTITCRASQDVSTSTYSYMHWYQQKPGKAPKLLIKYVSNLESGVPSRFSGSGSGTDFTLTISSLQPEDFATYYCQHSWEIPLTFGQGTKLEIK . Reported Receptor downregulation (EC50)?
0.047

Item under review: AB-14.3 (antibody, V domains shown) VH: QVQLVQSGAEVKKPGASVKVSCKASGYTFTDYNYHWVRQAPGQGLEWIGFIYPSNGITGSAQKFQGRVTMTVDTSTSTVYMELSSLRSEDTAVYYCARSDVDYFDYWGQGTLVTVSS VL: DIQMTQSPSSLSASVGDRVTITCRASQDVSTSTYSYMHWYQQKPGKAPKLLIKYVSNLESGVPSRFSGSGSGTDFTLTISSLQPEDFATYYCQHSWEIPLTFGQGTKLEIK . Reported Receptor downregulation (EC50)?
0.043
